pIC50 for hCRTH2 receptor (Homo sapiens (Human), UniProt Q9Y5Y4) - collated from the literature.
When answering, recall that pIC50 equals minus log10 of the concentration in mol/L, and write that number alone.

Here is how some compounds turned out for pIC50.
| compound | measured attribute | endpoint value |
| --- | --- | --- |
| CCOc1ccc(CC(=O)O)cc1-c1ccc(F)c2c1CN(C(=O)CC1COc3ccccc3C1)CC2 (racemic) | pIC50 | 7.93 |
| CCOc1ccc(CC(=O)O)cc1-c1ccc(F)c2c1CN(C(=O)CC(C)c1nccs1)CC2 (racemic) | pIC50 | 8.14 |
| COC(C)(C)CCOC(=O)N1CCc2ncsc2[C@H]1c1cc(Cl)ccc1OCC(=O)O | pIC50 | 8.32 |
| CCCCC(=O)N(Cc1cccc(OC(F)(F)F)c1)c1cc(F)cc(-c2nnn[nH]2)c1 | pIC50 | 8.28 |

In the following, a different compound is considered.
Query block: Provide the documented pIC50 with hCRTH2 receptor (Homo sapiens (Human), UniProt Q9Y5Y4) as the system for "CCC(=O)N(Cc1ccc(-c2cccc(S(=O)(=O)N3CCOCC3)c2)cc1)c1cc(F)cc(-c2nnn[nH]2)c1"
Sequence (Q9Y5Y4 whole entry): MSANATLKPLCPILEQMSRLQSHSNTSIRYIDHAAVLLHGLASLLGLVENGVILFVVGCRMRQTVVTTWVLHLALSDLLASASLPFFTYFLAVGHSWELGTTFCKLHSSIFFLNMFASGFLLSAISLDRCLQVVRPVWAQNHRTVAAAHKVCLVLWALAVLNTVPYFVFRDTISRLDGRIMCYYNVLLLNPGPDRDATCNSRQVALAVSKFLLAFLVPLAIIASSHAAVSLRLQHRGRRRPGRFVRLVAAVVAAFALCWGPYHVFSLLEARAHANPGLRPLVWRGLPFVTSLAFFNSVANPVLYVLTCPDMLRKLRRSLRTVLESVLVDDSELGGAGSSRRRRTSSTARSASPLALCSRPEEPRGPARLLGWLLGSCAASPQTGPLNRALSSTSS
Result block: 6.84
